Metric: IC50 (nM)
Give the quantity in nM, number only.

The molecule CCCCCC(O)c1ccc(CN(CCCCCCC(=O)O)S(=O)(=O)c2cccs2)cc1 (stereo not shown) on EP2 (Homo sapiens): IC50 was 1490

====

- Target Or System: EP2 (Homo sapiens, UniProt P43116)
- Sequence (P43116 whole entry): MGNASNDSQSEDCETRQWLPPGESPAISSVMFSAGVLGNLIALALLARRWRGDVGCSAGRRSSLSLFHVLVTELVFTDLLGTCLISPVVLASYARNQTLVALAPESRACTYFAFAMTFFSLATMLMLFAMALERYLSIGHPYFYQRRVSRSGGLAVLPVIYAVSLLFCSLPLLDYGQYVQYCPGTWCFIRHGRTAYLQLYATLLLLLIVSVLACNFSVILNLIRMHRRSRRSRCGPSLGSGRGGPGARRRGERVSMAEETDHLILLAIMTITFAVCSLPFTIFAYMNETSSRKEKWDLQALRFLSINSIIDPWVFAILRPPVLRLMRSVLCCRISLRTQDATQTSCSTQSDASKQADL
- Protocol Description: EP2 receptor binding (bhEP2 / EP2 Binding)
- Assay Conditions: Table 2
Metric: EP2 Binding % Inh (%)
Give the quantity in %, number only.

The recorded EP2 Binding % Inh for entry CC(C)(C)c1ccc(CN(CCCCCCC(=O)O)S(=O)(=O)c2cccnc2)cc1 equals 73

The recorded EP2 Binding % Inh for entry CC(C)(C)c1ccc(CN(CCCCCCC(=O)O)S(=O)(=O)c2cccs2)cc1 equals 76

The recorded EP2 Binding % Inh for entry CS(=O)(=O)N(C/C=C\CCCC(=O)O)CCOc1cc(Cl)cc(Cl)c1 equals 81

The recorded EP2 Binding % Inh for entry CC(C)(C)c1ccc(CN(CCCCCCC(=O)O)S(=O)(=O)c2ccccc2)cc1 equals 82

The recorded EP2 Binding % Inh for entry CS(=O)(=O)N(CC#CCCCC(=O)O)CCOc1cc(Cl)cc(Cl)c1 equals 87

The recorded EP2 Binding % Inh for entry CC(C)(C)c1ccc(CN(CCCCCCC(=O)O)S(C)(=O)=O)cc1 equals 60

The recorded EP2 Binding % Inh for entry CCCCCC(O)c1ccc(CN(Cc2ccc(OCC(=O)O)cc2)S(=O)(=O)c2cccnc2)cc1 (centres unmarked) equals 97

The recorded EP2 Binding % Inh for entry CC(C)(C)c1ccc(CN(Cc2ccc(OCC(=O)O)cc2)S(=O)(=O)c2cccnc2)cc1 equals 93

====

- Target Or System: EP4 (Homo sapiens)
Metric: pIC50
# log scale: pIC50 equals minus log10 of the concentration in mol/L

The recorded pIC50 for entry CCCCCC(O)c1ccc(CN(CCCCCCC(=O)O)S(=O)(=O)c2cccnc2)cc1 (stereo not shown) equals 6.26

====

- Target Or System: EP4 (Homo sapiens, UniProt P35408)
- Sequence (P35408 whole entry): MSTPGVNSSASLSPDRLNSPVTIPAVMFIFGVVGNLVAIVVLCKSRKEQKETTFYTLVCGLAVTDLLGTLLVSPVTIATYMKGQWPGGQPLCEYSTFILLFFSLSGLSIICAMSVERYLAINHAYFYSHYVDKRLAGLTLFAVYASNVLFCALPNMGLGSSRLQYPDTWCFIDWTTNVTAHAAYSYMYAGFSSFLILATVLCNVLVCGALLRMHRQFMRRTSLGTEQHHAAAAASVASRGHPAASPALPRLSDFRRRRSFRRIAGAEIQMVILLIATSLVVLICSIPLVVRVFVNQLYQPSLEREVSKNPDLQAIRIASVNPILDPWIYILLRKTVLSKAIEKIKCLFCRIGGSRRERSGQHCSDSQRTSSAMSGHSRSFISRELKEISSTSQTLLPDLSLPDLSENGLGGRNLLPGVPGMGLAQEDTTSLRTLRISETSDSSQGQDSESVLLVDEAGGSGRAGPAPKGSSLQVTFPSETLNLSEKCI
- Protocol Description: EP4 receptor binding (bhEP4 / EP4 Binding)
- Assay Conditions: Table 2
If the reported EP4 Binding % Inh equals or exceeds 90%, assign fulfilled. If not, assign not fulfilled.

Evaluate CC(C)(C)c1ccc(CN(CCCCCCC(=O)O)S(=O)(=O)c2cccs2)cc1 : EP4 Binding % Inh at minimum 90%?
fulfilled

Evaluate CC(C)(C)c1ccc(CN(CCCCCCC(=O)O)S(=O)(=O)c2ccccc2)cc1 : EP4 Binding % Inh at minimum 90%?
fulfilled

Evaluate CS(=O)(=O)N(CC#CCCCC(=O)O)CCOc1cc(Cl)cc(Cl)c1 : EP4 Binding % Inh at minimum 90%?
not fulfilled

Evaluate CC(C)(C)c1ccc(CN(Cc2ccc(OCC(=O)O)cc2)S(=O)(=O)c2cccnc2)cc1 : EP4 Binding % Inh at minimum 90%?
not fulfilled

Evaluate CC(C)(C)c1ccc(CN(CCCCCCC(=O)O)S(C)(=O)=O)cc1 : EP4 Binding % Inh at minimum 90%?
not fulfilled

Evaluate CC(C)(C)c1ccc(CN(CCCCCCC(=O)O)S(=O)(=O)c2cccnc2)cc1 : EP4 Binding % Inh at minimum 90%?
not fulfilled

Evaluate CS(=O)(=O)N(C/C=C\CCCC(=O)O)CCOc1cc(Cl)cc(Cl)c1 : EP4 Binding % Inh at minimum 90%?
not fulfilled

====

- Target Or System: EP2 (Homo sapiens)
- Protocol Description: cAMP assay
- Assay type: cell-based
- Assay Conditions: Table 2; read-out: cAMP EC50
Metric: log10 EC50 (log10 of the value in nM)
// stored as log10 of EC50 expressed in nM

The recorded log10 EC50 for entry CC(C)(C)c1ccc(CN(CCCCCCC(=O)O)S(=O)(=O)c2cccnc2)cc1 equals 2.10

The recorded log10 EC50 for entry CC(C)(C)c1ccc(CN(CCCCCCC(=O)O)S(=O)(=O)c2cccs2)cc1 equals 3.29

The recorded log10 EC50 for entry CS(=O)(=O)N(C/C=C\CCCC(=O)O)CCOc1cc(Cl)cc(Cl)c1 equals 2.33

The recorded log10 EC50 for entry CC(C)(C)c1ccc(CN(CCCCCCC(=O)O)S(=O)(=O)c2ccccc2)cc1 equals 2.98

The recorded log10 EC50 for entry CC(C)(C)c1ccc(CN(CCCCCCC(=O)O)S(C)(=O)=O)cc1 equals 2.19

The recorded log10 EC50 for entry CC(C)(C)c1ccc(CN(Cc2ccc(OCC(=O)O)cc2)S(=O)(=O)c2cccnc2)cc1 equals 1.26

The recorded log10 EC50 for entry CCCCCC(O)c1ccc(CN(CC#CCCCC(=O)O)S(C)(=O)=O)cc1 (stereo not drawn) equals 1.38

The recorded log10 EC50 for entry CCCCCC(O)c1ccc(CN(Cc2ccc(OCC(=O)O)cc2)S(=O)(=O)c2cccnc2)cc1 (stereo not drawn) equals 0.54

The recorded log10 EC50 for entry CS(=O)(=O)N(CC#CCCCC(=O)O)CCOc1cc(Cl)cc(Cl)c1 equals 1.92
